- Test system: M14 melanoma
- ASSAY EXPLANATION: NCI tumour cell line growth inhibition, 48 h
Could you please report measured TGI for the items listed next?

Data point: C=C(C)[C@]12CC(C)C34OC(/C=C\C=C\CCCCCCCCC)(O[C@@H]1[C@@H]3[C@@H]1O[C@]1(CO)[C@@H](O)[C@]1(O)C(=O)C(C)=C[C@@H]41)O2 (some centres undefined) ; TGI = 27.4 µM

Lab note: measured TGI of CCOC(=N)CC(=O)NC(C)c1ccccc1 (centres undefined) was > 100 µM

The compound identified as COC1C(CO)OC(n2c3ccccc3c3c4c(c5c6ccccc6[nH]c5c32)C(=O)NC4=O)C(O)C1OC(=O)C(N)CCCCN (centres undefined) registered its TGI at > 11 µM

Entry "Cc1nc(C(N)=S)sc1C(=O)CC(=O)C(=O)Nc1cccc(Cl)c1C" , TGI reported as > 100 µM

CN(Cc1nc2c(N)nc(N)nc2nc1N)c1ccc(C(=O)NC(CCC(=O)O)C(=O)O)cc1 (centres undefined) yielded TGI of > 100 µM

Record summary for CN1CC(C(=O)NC2(C)OC3(O)C4CCCN4C(=O)C(Cc4ccccc4)N3C2=O)C=C2c3cccc4[nH]cc(c34)CC21 (centres undefined) : reported TGI = 81.4 µM

For record COC1=CC2(C=CC1=O)CCN=c1c(O)c3c(c(O)c12)=NC=N3 (centres undefined) the listed TGI is > 100 µM

TGI recorded for this compound, COCCCN1C(=O)C2c3[nH]c4ccccc4c3C3CCC(C(C)(C)C)CC3C2C1=O (centres undefined) , is 39 µM

Memo: "C=C(CC1(CC(=C)c2ccc(C(=O)O)cc2)C(=O)N(C)C(=O)N(C)C1=O)c1ccc(C(=O)O)cc1" , reported TGI: > 100 µM

Notebook: COC(=O)C(=O)C(C(=O)C(=O)Nc1ccccc1C(N)=O)c1nc2ccc(C(=O)c3ccccc3)cc2[nH]c1=O (centres undefined) , TGI read as > 100 µM

Looking up COC(=O)C1(Cc2ccccc2)Cc2ccccc2C1=O (centres undefined) , I see its TGI listed as > 100 µM

Lab note: "CN1CCN(C(=S)SCN2C(=O)c3ccccc3S2(=O)=O)CC1" gave TGI of 22.8 µM

Reported TGI of "Cc1ccc(S(=O)(=O)NC(=O)NS(=O)(=O)O)cc1" : > 100 µM

Summary for this compound, "CCCCCCN1C(=O)CN=C1Nc1ccc2cc3ccc(NC4=NCC(=O)N4CCCCCC)cc3nc2c1" : TGI is 4.84 µM

# compound "CN1C(=O)[C@@]2(C=CC3(CC2)OCCO3)c2ccccc21" ; its TGI = > 50 µM

The reported TGI of the compound CCC1(O)CN(CCOC)[C@H]2C[C@@H]1C(=O)c1[nH]c3ccccc3c12 (some centres undefined) was > 100 µM

Given item "COc1ccccc1OC/C(N=Cc1ccncc1)=N/NC(=O)c1ccncc1" , the value recorded as its TGI is > 100 µM

// recorded TGI for COC(=O)C(Cc1ccccc1)NC(=O)CCCNC(=O)OCc1ccccc1 (centres undefined) : 32.5 µM

Lookup result for "Cc1[nH]c(=O)nc(N/N=C/c2ccc(O)cc2)c1C(=O)Nc1ccc(Cl)cc1" ; measured TGI: > 100 µM
